Target: T1, REV-ERBβ ligand-binding domain (human, UniProt Q14995 212-579)
T1 chain: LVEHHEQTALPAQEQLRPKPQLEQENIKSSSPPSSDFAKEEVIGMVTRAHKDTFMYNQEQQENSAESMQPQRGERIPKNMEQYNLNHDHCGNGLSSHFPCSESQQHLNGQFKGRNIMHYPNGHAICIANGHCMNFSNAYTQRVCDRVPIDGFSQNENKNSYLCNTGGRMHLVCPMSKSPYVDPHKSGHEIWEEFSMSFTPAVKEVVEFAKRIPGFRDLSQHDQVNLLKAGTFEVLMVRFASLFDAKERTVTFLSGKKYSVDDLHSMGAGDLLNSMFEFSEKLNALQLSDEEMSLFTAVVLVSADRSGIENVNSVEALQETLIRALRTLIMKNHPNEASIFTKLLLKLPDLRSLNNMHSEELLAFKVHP
Test: FP; no heme, + SNAP (NO donor)
No end group written: not given here.
measurementType: Kd (µM)
Enter your answer as a number in µM; do not include the unit.

[ask] Give its Kd value. Item: fluorescein-DPASNLGLEDIIRKALMGSF (also called NCOR peptide; Nuclear Receptor Co-repressor peptide) [NCOR interaction domain I (IDI) peptide]
[reply] 20.4
